Data origin, for the record: ChEMBL document CHEMBL3228022

- System: Mus musculus
- assay procedure: Neuroleptic activity in STD-ddy mouse assessed as inhibition of locomotion at 100 mg/kg, po measured for 3 mins
- Type: functional
- measurement context: 0.05 h
Classification field: met = inhibition in vivo at 100 mg/kg at or over 80%; not met = inhibition in vivo at 100 mg/kg under 80%.

Is inhibition in vivo at 100 mg/kg for CCN1CC[C@H]2Nc3ccc(C)cc3[C@H]2C1 (mixture of isomers) at or above 80%?
not met

Form field: inhibition in vivo at 100 mg/kg at least 80%? Entry: Cl.O=C(CCCN1CC[C@@H]2Nc3ccc(F)cc3[C@H]2C1)c1ccc(F)cc1 (relative stereo)
met

For this compound, is measured inhibition in vivo at 100 mg/kg 80% or higher? CN1c2ccc(F)cc2[C@H]2CN(CCCC(=O)c3ccc(F)cc3)CC[C@@H]21.O=C(O)/C=C\C(=O)O (relative stereo)
met

Check if inhibition in vivo at 100 mg/kg >= 80% (inclusive). Item: Cc1ccc2c(c1)[C@H]1CN(Cc3ccccc3)CC[C@@H]1N2 (relative stereo)
not met

Threshold query (inhibition in vivo at 100 mg/kg >= 80%) on CN(C)CCCN1c2ccccc2Sc2ccc(Cl)cc21
met

Item Cl.O=C(CCCN1CC[C@H]2Nc3ccc(F)cc3[C@H]2C1)c1ccc(F)cc1 (relative stereo) with inhibition in vivo at 100 mg/kg of 80% or above?
met

Threshold query (inhibition in vivo at 100 mg/kg >= 80%) on CC(=O)N1c2ccc(C)cc2[C@H]2CN(CCCC(=O)c3ccc(F)cc3)CC[C@H]21 (relative stereo)
not met
